Where do the numbers come from? From patent US5789434A.

tested on: MMP-3 (Homo sapiens, UniProt P08254)
Construct: Truncated Prostromelysin-257 was expressed in a soluble form in E.coli; made in house; host or cells: E. coli
Sequence (P08254 100-274 limits assumed): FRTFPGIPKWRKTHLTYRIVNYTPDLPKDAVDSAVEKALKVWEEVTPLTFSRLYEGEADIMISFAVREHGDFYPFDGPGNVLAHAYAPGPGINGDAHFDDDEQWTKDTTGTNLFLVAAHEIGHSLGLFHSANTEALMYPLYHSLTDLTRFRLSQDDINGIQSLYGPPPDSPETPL
protocol notes: Automated MMP Profiling Assay, MMP-3 fluorogenic
Format: biochemical
test settings: 96-well automated, P218
Assign labels as follows, please: yes (1) for IC50 below 0.1 µM; no (0) for IC50 equal to or exceeding 0.1 µM.

compound	class
O=C(CC(CCN1C(=O)c2cccc3cccc(c23)C1=O)C(=O)O)c1ccc(-c2ccc(Cl)cc2)cc1 (centres unmarked)	no (0)
O=C(CC(CCN1C(=O)c2ccncc2C1=O)C(=O)O)c1ccc(-c2ccc(Cl)cc2)cc1 (centres unmarked)	yes (1)
O=C(CC(CCN1C(=O)c2cccc(OCc3ccccc3)c2C1=O)C(=O)O)c1ccc(-c2ccc(Cl)cc2)cc1 (centres unmarked)	yes (1)
O=C(CC(CCNC(=O)c1ccccc1C(=O)O)C(=O)O)c1ccc(-c2ccc(Cl)cc2)cc1 (centres unmarked) [Example 279]	no (0)
CN(C)C(=O)c1cccc(SCC(CC(=O)c2ccc(-c3ccc(Cl)cc3)cc2)C(=O)O)c1 (centres unmarked)	yes (1)
O=C(CC(CN1C(=O)c2ccccc2C1=O)C(=O)O)c1ccc(-c2ccc(Cl)cc2)cc1 (centres unmarked)	no (0)

Given the entry "O=C(C[C@H](CCCc1ccccc1)C(=O)O)c1ccc(-c2ccc(OCc3ccccc3)cc2)cc1" , would its reported IC50 be below 0.1 µM?
yes (1)

---

tested on: MMP-9 (Homo sapiens, UniProt P14780)
Construct: from tissue; host or cells: human polymorphonuclear leukocytes (PMN) from whole blood (New York Blood Center), PMA-stimulated supernatant
Sequence (P14780 107-707 limits assumed): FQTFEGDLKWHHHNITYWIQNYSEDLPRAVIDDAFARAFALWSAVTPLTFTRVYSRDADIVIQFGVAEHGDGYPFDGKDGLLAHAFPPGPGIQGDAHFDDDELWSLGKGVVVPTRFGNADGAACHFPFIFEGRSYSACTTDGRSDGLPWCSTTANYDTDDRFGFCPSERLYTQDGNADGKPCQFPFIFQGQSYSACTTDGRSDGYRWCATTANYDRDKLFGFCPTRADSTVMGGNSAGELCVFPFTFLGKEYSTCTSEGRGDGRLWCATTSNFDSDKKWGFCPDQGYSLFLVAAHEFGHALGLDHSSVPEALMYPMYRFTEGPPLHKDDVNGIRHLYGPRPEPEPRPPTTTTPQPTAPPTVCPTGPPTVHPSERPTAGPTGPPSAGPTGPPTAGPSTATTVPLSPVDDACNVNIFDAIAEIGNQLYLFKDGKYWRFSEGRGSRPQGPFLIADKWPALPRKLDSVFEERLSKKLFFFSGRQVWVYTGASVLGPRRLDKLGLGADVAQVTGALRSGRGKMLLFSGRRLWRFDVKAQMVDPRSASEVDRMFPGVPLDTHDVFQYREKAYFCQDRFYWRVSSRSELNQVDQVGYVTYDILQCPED
protocol notes: Thiopeptilide MMP-9 Inhibition Assay
Type: biochemical
test settings: pH 6.5; x (n) = average of n determinations; read-out: MMP-9: Thiopep. IC50
Assign labels as follows, please: true for IC50 below 0.4 µM; false for IC50 equal to or exceeding 0.4 µM.

Given the entry O=C(CC(CSc1cccc(Br)c1)C(=O)O)c1ccc(-c2ccc(Cl)cc2)cc1 (centres unmarked) [Example 228] , would its reported IC50 be below 0.4 µM?
false

Given the entry COc1ccccc1SCC(CC(=O)c1ccc(-c2ccc(Cl)cc2)cc1)C(=O)O (centres unmarked) [Example 229] , would its reported IC50 be below 0.4 µM?
false

Given the entry CC(=O)SCC(CC(=O)c1ccc(-c2ccc(Cl)cc2)cc1)C(=O)O (centres unmarked) [Example 200] , would its reported IC50 be below 0.4 µM?
false

---

Hi there, I'd appreciate the recorded pIC50 for every entry that follows.
tested on: MMP-9 (Homo sapiens, UniProt P14780)
Construct: from tissue; host or cells: human polymorphonuclear leukocytes (PMN) from whole blood (New York Blood Center), PMA-stimulated supernatant
protocol notes: Automated MMP Profiling Assay, MMP-9 fluorogenic
Type: biochemical
test settings: 96-well automated, P218
Answers are plain numbers, as −log10 of the molar value.

Answered cases to consult:
molecule	pIC50
COC(=O)c1ccccc1C(=O)OC[C@@H]1CC[C@H](C(=O)c2ccc(-c3ccc(Cl)cc3)cc2)[C@H]1C(=O)O (relative stereo)	7.52
O=C(O)[C@H]1[C@H](CON2C(=O)c3ccccc3C2=O)CC[C@@H]1C(=O)c1ccc(-c2ccc(Cl)cc2)cc1 (relative stereo)	7.64
O=C(CC(CCN1C(=O)c2cc(Cl)c(Cl)cc2C1=O)C(=O)O)c1ccc(-c2ccc(Cl)cc2)cc1 (stereo not shown)	8.92
O=C(c1ccc(-c2ccc(Cl)cc2)cc1)[C@H]1CCN(C(=O)NCc2ccccc2)[C@@H]1C(=O)O	6.79
CCCCNC(=O)c1ccc(CCC(CC(=O)c2ccc(-c3ccc(Cl)cc3)cc2)C(=O)O)cc1 (stereo not shown)	6.22

Kindly give each listed record's pIC50.
1. Cc1ccc2c(c1)C(=O)N(CCC(CC(=O)c1ccc(-c3ccc(Cl)cc3)cc1)C(=O)O)C2=O (stereo not shown)
2. O=C(c1ccc(-c2ccc(Cl)cc2)cc1)[C@H]1CCN(C(=O)Cc2ccccc2)[C@@H]1C(=O)O
3. Cc1cccc(C)c1SCC(CC(=O)c1ccc(-c2ccc(Cl)cc2)cc1)C(=O)O (stereo not shown)

8.60
5.74
6.89

---

tested on: MMP-3 (Homo sapiens)
Construct: Truncated Prostromelysin-257 was expressed in a soluble form in E.coli; made in house; host or cells: E. coli
protocol notes: Primary Thiopeptilide MMP-3 Inhibition Assay
Assay type: biochemical
test settings: pH 6.5; 13 nM stromelysin; x (n) = average of n determinations; read-out: MMP-3 Thiopep. IC50
Hi there, I'd appreciate the recorded pIC50 for every entry that follows.
Give bare numbers, as −log10 of the molar value.

Kindly give each listed record's pIC50.
1. Nc1ccc(-c2ccc(C(=O)CC(CCc3ccccc3)C(=O)O)cc2)cc1 (centres unmarked)
2. CC(C)SCC(CC(=O)c1ccc(-c2ccc(Cl)cc2)cc1)C(=O)O (centres unmarked)

5.80
6.31

Kindly give each listed record's pIC50.
1. CCCCCC(CC(=O)c1ccc(-c2ccc(Cl)cc2)cc1)C(=O)O (centres unmarked)
2. Cc1ccc(-c2ccc(C(=O)CC(CC(C)C)C(=O)O)cc2)cc1 (centres unmarked)
3. O=Cc1ccc(-c2ccc(C(=O)CC(CCCc3ccccc3)C(=O)O)cc2)cc1 (centres unmarked)

6.21
6.12
6.51

---

tested on: MMP-2 (Homo sapiens, UniProt P08253)
Sequence (P08253 110-660): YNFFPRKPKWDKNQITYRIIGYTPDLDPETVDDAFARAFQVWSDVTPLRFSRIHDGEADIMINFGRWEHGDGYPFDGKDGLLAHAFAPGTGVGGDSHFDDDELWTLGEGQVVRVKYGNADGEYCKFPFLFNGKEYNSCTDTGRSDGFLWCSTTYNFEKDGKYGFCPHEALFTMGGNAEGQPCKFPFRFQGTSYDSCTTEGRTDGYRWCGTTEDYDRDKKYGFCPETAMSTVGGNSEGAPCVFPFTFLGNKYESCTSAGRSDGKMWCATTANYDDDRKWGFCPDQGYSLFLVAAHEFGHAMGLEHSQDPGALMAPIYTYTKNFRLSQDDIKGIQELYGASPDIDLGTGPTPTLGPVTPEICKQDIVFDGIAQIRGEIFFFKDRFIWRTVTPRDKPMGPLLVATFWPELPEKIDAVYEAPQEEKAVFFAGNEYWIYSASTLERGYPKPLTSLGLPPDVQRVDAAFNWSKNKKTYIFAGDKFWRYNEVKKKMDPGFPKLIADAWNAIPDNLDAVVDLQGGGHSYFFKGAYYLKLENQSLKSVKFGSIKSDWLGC
protocol notes: Automated MMP Profiling Assay, MMP-2 fluorogenic
Format: biochemical
test settings: 96-well automated, P218; read-out: MMP-2 Fluorogenic IC50 (profiling)
outcome measure: pIC50
Give bare numbers, as −log10 of the molar value.

compound	outcome measure	result value
CCCCCOc1ccc(-c2ccc(C(=O)[C@H]3CC[C@H](Sc4ccccc4)[C@@H]3C(=O)O)cc2)cc1 (relative stereo)	pIC50	7.43

Kindly give each listed record's pIC50.
1. O=C(O)[C@H]1[C@H](COc2ccccc2)CC[C@@H]1C(=O)c1ccc(-c2ccc(Cl)cc2)cc1 (relative stereo)
2. CCCCC#Cc1ccc(-c2ccc(C(=O)CC(CCCc3ccccc3)C(=O)O)cc2)cc1 (stereo not drawn)
3. O=C(CC(CCc1ccc(I)cc1)C(=O)O)c1ccc(-c2ccc(Cl)cc2)cc1 (stereo not drawn)
4. O=C(C[C@H](CS(=O)(=O)c1ccccc1)C(=O)O)c1ccc(-c2ccc(Cl)cc2)cc1
5. O=C(O)[C@@H]1[C@@H](Sc2ccccc2)CC[C@H]1C(=O)c1ccc(-c2ccc(Cl)cc2)cc1
6. COC(=O)c1cccc(SCC(CC(=O)c2ccc(-c3ccc(Cl)cc3)cc2)C(=O)O)c1 (stereo not drawn)

[8.17, 7.21, 6.84, 7.89, 5.68, 6.63]

Kindly give each listed record's pIC50.
1. O=C(O)[C@@H]1CN(Cc2ccccc2)C[C@H]1C(=O)c1ccc(-c2ccc(Cl)cc2)cc1 (relative stereo)
2. O=C(CC(CCc1cccc(I)c1)C(=O)O)c1ccc(-c2ccc(Cl)cc2)cc1 (stereo not drawn)

1: 5.30; 2: 7.40

Kindly give each listed record's pIC50.
1. CN(C)C(=O)c1ccccc1SCC(CC(=O)c1ccc(-c2ccc(Cl)cc2)cc1)C(=O)O (stereo not drawn)
2. O=C(O)[C@H]1[C@H](C(=O)c2ccc(-c3ccc(Cl)cc3)cc2)[C@H]2C=C[C@@H]1C2 (relative stereo)
3. O=C(CC(CCCc1ccccc1)C(=O)O)c1ccc(-c2ccc(OCc3cccnc3)cc2)cc1 (stereo not drawn)
4. COc1ccc(-c2ccc(C(=O)CC(CCc3ccccc3)C(=O)O)cc2)cc1 (stereo not drawn)
5. O=C(c1ccc(-c2ccc(Cl)cc2)cc1)C1CCC(Sc2ccccc2)C1C(=O)O (stereo not drawn)
6. CCCCNC(=O)c1cccc(CCC(CC(=O)c2ccc(-c3ccc(Cl)cc3)cc2)C(=O)O)c1 (stereo not drawn)

1. 6.54
2. 5.70
3. 8.18
4. 7.43
5. 7.22
6. 6.70

---

Hi there, I'd appreciate the recorded IC50 for every entry that follows.
tested on: MMP-2 (Homo sapiens, UniProt P08253)
protocol notes: Automated MMP Profiling Assay, MMP-2 fluorogenic
Assay type: biochemical
test settings: 96-well automated, P218; read-out: MMP-2 Fluorogenic IC50 (profiling)
One number for each entry, in nM.

compound	IC50 [nM]
COc1ccc(CSCCC(CC(=O)c2ccc(-c3ccc(Cl)cc3)cc2)C(=O)O)cc1 (centres unmarked)	42
CC(C)CCOc1ccc(-c2ccc(C(=O)CC(CCCc3ccccc3)C(=O)O)cc2)cc1 (centres unmarked)	72
O=C(CC(CSc1ccccc1)C(=O)O)c1ccc(-c2ccc(Cl)cc2)cc1 (centres unmarked)	37
O=C(O)[C@@H]1[C@@H](CN2C(=O)c3ccccc3C2=O)CC[C@H]1C(=O)c1ccc(-c2ccc(Cl)cc2)cc1	183
O=C(O)[C@H]1[C@H](CN2C(=O)c3ccccc3C2=O)CC[C@@H]1C(=O)c1ccc(-c2ccc(Cl)cc2)cc1 (relative stereo) [Example 360]	1.46

Kindly give each listed record's IC50.
1. CC(=O)Oc1ccc2c(c1)C(=O)N(CCC(CC(=O)c1ccc(-c3ccc(Cl)cc3)cc1)C(=O)O)C2=O (centres unmarked)
2. COCOC[C@@H]1CC[C@H](C(=O)c2ccc(-c3ccc(Cl)cc3)cc2)[C@H]1C(=O)O (relative stereo)
3. CC(C)COc1ccc(-c2ccc(C(=O)CC(CCCc3ccccc3)C(=O)O)cc2)cc1 (centres unmarked)
4. O=C(CC(CCCc1ccccc1)C(=O)O)c1ccc(-c2ccc(OCCc3ccccc3)cc2)cc1 (centres unmarked)
5. CCCOc1ccc2c(c1)C(=O)N(CCC(CC(=O)c1ccc(-c3ccc(Cl)cc3)cc1)C(=O)O)C2=O (centres unmarked)
6. Cc1cccc(C(=O)OC[C@@H]2CC[C@H](C(=O)c3ccc(-c4ccc(Cl)cc4)cc3)[C@H]2C(=O)O)c1 (relative stereo)
7. O=C(O)[C@H]1[C@H](CSc2ccccc2)CC[C@@H]1C(=O)c1ccc(-c2ccc(Cl)cc2)cc1 (relative stereo)

14
40
155
25
17
92
24
